Protocol Description: Individual serum elimination rate and half-life (linear regression per employee)
Condition Summary: individual estimate, subject 16, 5 samples
Range-based classes on measured Elimination rate: lower bin (below 0.1 yearly), middle bin (0.1 yearly to below 0.9 yearly), upper bin (0.9 yearly or more)

Molecule	Label Value
O=S(=O)(O)C(F)(F)C(F)(F)C(F)(F)C(F)(F)C(F)(F)C(F)(F)C(F)(F)C(F)(F)F	middle bin

Query: Consider O=C(O)C(F)(F)C(F)(F)C(F)(F)C(F)(F)C(F)(F)C(F)(F)C(F)(F)F . To which Elimination rate class does it belong?
Response: middle bin

Query: Category of O=C(O)C(F)(F)C(F)(F)C(F)(F)C(F)(F)C(F)(F)F , please.
Response: upper bin

Query: Band for O=S(=O)(O)C(F)(F)C(F)(F)C(F)(F)C(F)(F)C(F)(F)F ?
Response: middle bin

Query: Hi, small favor: classify O=S(=O)(O)C(F)(F)C(F)(F)C(F)(F)C(F)(F)F by its Elimination rate when you get a moment.
Response: upper bin

Query: Where would O=S(=O)(O)C(F)(C(F)(F)F)C(F)(F)C(F)(F)C(F)(F)C(F)(F)C(F)(F)C(F)(F)F (stereo not drawn) [1m-PFOS, perfluoro-1-methylheptanesulfonate] land among the classes by reported Elimination rate?
Response: lower bin

Query: Lab log: O=S(=O)(O)C(F)(F)C(F)(F)C(F)(F)C(F)(F)C(F)(F)C(F)(F)F — assign Elimination rate category
Response: lower bin

Attribution: paper PMC7351026
